Attribution: patent US20130072665A1

target: T1, PCSK9 ProCat (31-449 of SEQ ID NO: 3) (human, UniProt Q8NBP7 27-449); experiment: domain binding ELISA (coated antibody captures the PCSK9 form; OD650)
T1 construct: From PCSK9 449TEV after rTEV cleavage: GAMG-PCSK9 (31-449)-ENLYFQ; Written as one chain; autocatalysis between 152 and 153 splits pro-domain and catalytic domain; also called procat PCSK9; PCSK9 31-449
REPORTED_PROPERTY: binding result

{"columns": ["BINDER", "REPORTED_PROPERTY", "DATA_VALUE"],
 "data": [
  ["23B5 (antibody, V domains shown) VH: EVQLLESGGGLVQPGGSLRLSCAASGFTFSSYAMNWVRQAPGKGLEWVSTISGSGDNTYYADSVKGRFTISRDNSKNTLYLQMNSLRAEDTAVYYCAKKFVLMVYAMLDYWGQGTLVTVSS VL: DILMTQSPSSLSASVGDRVTITCRASQSISSYLNWYQQKPGKAPKVLIYAASSLQSGVPSRFSGSGSGTDFTLTINSLQPEDFATYYCQQSYSSPITFGQGTRLEIK", "binding result", "binds"],
  ["13H1 (antibody, V domains shown) VH: QVQLQQSGPGLVKPSQTLSLTCAISGDSVSSNSAAWNWIRQSPSRGLEWLGRTYYRSKWYKNYSVSVKSRITINPDTSKNQFSLQLNSVTPGDTAVYYCARGGPTAAFDYWGQGTLVTVSS VL: LSALTQPASVSGSPGQSITISCTGTSSDVGNYNLVSWYQQYSGKAPKLMIYEVSKRPSGVSNRFSGSKSGNTASLTISGLQAEDEADYYCCSYAGSSTLVFGGGTKLTVL", "binding result", "binds"],
  ["27E7 (antibody, V domains shown) VH: QVQLVQSGAEVKKPGASLKVSCKASGYSLTSYGISWVRQAPGQGLEWMGWISAYNGNTNYAQKVQGRVTMTTDTSTSTVYMEVRSLRSDDTAVYYCARGYGMDVWGQGTTVTVSS VL: QSALTQPASVSGSPGQSITISCTGTSSDVGGYNSVSWYQQHPGKPPKLMIYEVSNRPSGVSNRFSGSKSGNTASLTISGLQAEDEADYFCSSYTSTSMVFGGGTKLTVL", "binding result", "binds"]
]}
